# Tested on: P-gp (human MDR1, ABCB1)
# protocol: MDCK-MDR1 permeability (blood brain barrier permeability)
# Format: in vitro ADME, Canine
# stated-conditions: dog, MDCK-MDR1, Apical to basolateral transport, 5 μM, average of two experiments
assay-readout: Papp A→B at 5 μM (×10⁻⁶ cm/s)

IN: Could you share which Papp A→B at 5 μM value was measured for Cc1cc(Nc2cc(NCCC(=O)O)ncn2)c(=O)n2c1C(=O)NC21CCCCC1 ?
OUT: 0.1

IN: Could you share which Papp A→B at 5 μM value was measured for Cc1cc(Nc2cc(NCCNS(C)(=O)=O)ncn2)c(=O)n2c1C(=O)NC21CCCC1 ?
OUT: 0.2

(A) CC1=CC2(CCC1)NC(=O)c1c(C)cc(Nc3cc(N)ncn3)c(=O)n12 (centres unmarked)
(B) Cc1cc(Nc2cc(NCCNS(C)(=O)=O)ncn2)c(=O)n2c1C(=O)NC21CCCCC1
(C) Cc1cc(Nc2cc(NC(=O)C3CC3)ncn2)c(=O)n2c1C(=O)NC21CCOCC1
IN: Could you please order the items by Papp A→B at 5 μM, going from the lowest number to the highest? // list labels; follow requested order
OUT: B, C, A
(B: 0.3 ×10⁻⁶ cm/s, C: 5.4 ×10⁻⁶ cm/s, A: 57.8 ×10⁻⁶ cm/s)

* * *

# protocol: Brain vs plasma concentration, 4ET-03-009 at 10 mg/kg
# Assay type: in vivo, mice
# stated-conditions: CD-1, mouse, brain homogenate, oral, 10 mg/kg, 10 mg/kg oral, 2 hours after dosing, Brain; read-out: Tissue Homogenate Conc. Mean
assay-readout: concentration at 2 hours (ng/mL)
Write the answer as a number in ng/mL, unit excluded.

IN: Could you share which concentration at 2 hours value was measured for Cc1cc(Nc2cc(NC(=O)C3CC3)ncn2)c(=O)n2c1C(=O)NC21CCOCC1 ?
OUT: 6.82

* * *

# protocol: Pharmacokinetic study, 4ET-03-009 at 20 mg/kg oral
# Format: in vivo, CD-1 male mice
# stated-conditions: male, CD-1, mouse, plasma, oral, 20 mg/kg, 6 hours, mean n = 3, read-out: Plasma Conc. Mean
assay-readout: concentration at 6 hours (ng/mL)
Write the answer as a number in ng/mL, unit excluded.

IN: Could you share which concentration at 6 hours value was measured for Cc1cc(Nc2cc(NC(=O)C3CC3)ncn2)c(=O)n2c1C(=O)NC21CCOCC1 [Compound 4ET-03-009] ?
OUT: 74.5

* * *

# protocol: Liver microsome stability, human
# Format: in vitro ADME
# stated-conditions: liver microsomes
assay-readout: microsomal CLint (µL/min/mg)

IN: Could you share which microsomal CLint value was measured for Cc1cc(Nc2cc(N)ncn2)c(=O)n2c1C(=O)NC21CCC(O)CC1 (stereo not drawn) ?
OUT: 3.6

IN: Could you share which microsomal CLint value was measured for Cc1cc(Nc2cc(NC(=O)C3CC3)ncn2)c(=O)n2c1C(=O)NC21CCC(O)CC1 (stereo not drawn) ?
OUT: 2.73

IN: Could you share which microsomal CLint value was measured for Cc1cc(Nc2cc(N)ncn2)c(=O)n2c1C(=O)NC21CCC(NS(C)(=O)=O)CC1 (stereo not drawn) ?
OUT: 2.56

* * *

# protocol: Liver microsome stability, human
# Type: in vitro ADME
# stated-conditions: liver microsomes, read-out: Human liver microsomes t1/2
assay-readout: half-life (h)

(A) Cc1cc(Nc2cc(NC(=O)C3CC3)ncn2)c(=O)n2c1C(=O)NC21CCCCC1
(B) Cc1cc(Nc2cc(NC(=O)C(C)C)ncn2)c(=O)n2c1C(=O)NC21CCCC1
(C) Cc1cc(Nc2cc(NC(=O)CN3CCOCC3)ncn2)c(=O)n2c1C(=O)NC21CCCCC1
IN: Place the items in sequence of falling half-life. // list labels; follow requested order
OUT: B, A, C
(B: 29.9 h, A: 9.98 h, C: 3.6 h)

* * *

# target-system: MNK1 (Homo sapiens, UniProt Q9BUB5)
# Sequence (Q9BUB5 whole entry): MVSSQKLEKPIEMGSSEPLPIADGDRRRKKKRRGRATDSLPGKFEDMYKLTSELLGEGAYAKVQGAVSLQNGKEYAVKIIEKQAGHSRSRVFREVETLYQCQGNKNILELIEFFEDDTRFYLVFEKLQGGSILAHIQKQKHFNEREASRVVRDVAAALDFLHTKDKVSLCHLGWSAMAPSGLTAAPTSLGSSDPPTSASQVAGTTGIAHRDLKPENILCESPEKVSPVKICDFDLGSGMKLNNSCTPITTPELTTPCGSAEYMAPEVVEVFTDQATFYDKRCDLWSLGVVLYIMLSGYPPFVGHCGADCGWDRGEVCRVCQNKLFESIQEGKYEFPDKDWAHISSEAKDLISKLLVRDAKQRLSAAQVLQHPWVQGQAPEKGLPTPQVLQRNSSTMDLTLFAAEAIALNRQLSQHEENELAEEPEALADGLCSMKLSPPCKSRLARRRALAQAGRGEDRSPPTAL
# protocol: MNK1 substrate phosphorylation assay
# stated-conditions: recombinant human kinase
assay-readout: IC50 (µM)

(A) Cc1cc(Nc2cc(NCCO)ncn2)c(=O)n2c1C(=O)NC21CCCC1
(B) Cc1cc(Nc2cc(NCCN3CCOCC3)ncn2)c(=O)n2c1C(=O)NC21CCCC1
(C) Cc1cc(Nc2cc(NC(=O)C3CC3)ncn2)c(=O)n2c1C(=O)NC21CCCCC1
IN: Lab note: order the above by reported IC50, lowest first, highest last. // list labels; follow requested order
OUT: B, A, C
(B: 0.0646 µM, A: 0.0967 µM, C: 0.14 µM)

* * *

# target-system: UniProt:Q9BUB5
# protocol: MNK1 substrate phosphorylation assay
# stated-conditions: recombinant human kinase
assay-readout: IC50 (µM)

IN: Could you share which IC50 value was measured for Cc1cc(Nc2cc(NCCN3CCOCC3)ncn2)c(=O)n2c1C(=O)NC2(C)C ?
OUT: 0.0802

IN: Could you share which IC50 value was measured for Cc1cc(Nc2cc(NC(=O)CN3CCOCC3)ncn2)c(=O)n2c1C(=O)NC21CCCCC1 ?
OUT: 0.089

IN: Could you share which IC50 value was measured for Cc1cc(Nc2cc(NCCNS(C)(=O)=O)ncn2)c(=O)n2c1C(=O)NC21CCCCC1 ?
OUT: 0.0617

IN: Could you share which IC50 value was measured for Cc1cc(Nc2cc(NCCO)ncn2)c(=O)n2c1C(=O)NC2(C)C ?
OUT: 0.0845

IN: Could you share which IC50 value was measured for Cc1cc(Nc2cc(NC(=O)C3CC3)ncn2)c(=O)n2c1C(=O)NC2(C)C ?
OUT: 0.133

(A) Cc1cc(Nc2cc(N)ncn2)c(=O)n2c1C(=O)NC21CCC(NS(C)(=O)=O)CC1 (stereo not shown)
(B) Cc1cc(Nc2cc(NC(=O)C(C)C)ncn2)c(=O)n2c1C(=O)NC21CCOCC1
IN: Of A and B , whose reported IC50 is numerically smaller? // caller expects the label of the chosen entry
OUT: B
(B: 0.0655 µM, A: 0.104 µM)

* * *

# target-system: MNK1 (Homo sapiens, UniProt Q9BUB5)
# protocol: MNK1 substrate phosphorylation assay
# Assay type: biochemical
# stated-conditions: recombinant human kinase
pIC50: −log10 of the molar value.
assay-readout: pIC50

IN: Could you share which pIC50 value was measured for Cc1cc(Nc2cc(NC(=O)C3CC3)ncn2)c(=O)n2c1C(=O)NC2(C)c1cccc(Cl)c1 (stereo not drawn) [Compound 4ET-03-035] ?
OUT: 6.89

IN: Could you share which pIC50 value was measured for Cc1cc(Nc2cc(NCCNS(C)(=O)=O)ncn2)c(=O)n2c1C(=O)NC21CCOCC1 [Compound 4ET-03-014] ?
OUT: 6.97

IN: Could you share which pIC50 value was measured for Cc1cc(Nc2cc(NC(=O)C3CC3)ncn2)c(=O)n2c1C(=O)NC21Cc2ccc(Cl)cc2C1 (stereo not drawn) [Compound 4ET-03-054] ?
OUT: 6.93
